These entries and their values trace back to ChEMBL document CHEMBL3244382.

system: Mus musculus; assay: Toxicity in PS mouse allografted with mouse P388 cells assessed as change in body weight at 0.8 ug/kg relative to control; assay type: organism-based; conditions: in vivo, 0.0008 mg/kg
Note to self: Activity under 0 g means satisfied, ties and anything higher get not satisfied.

Below, 2 compounds whose answers are already recorded.
Please check: Activity for `COc1cc2cc(c1Cl)N(C)C(=O)C[C@H](OC(=O)[C@H](C)N(C)C(=O)CC(C)C)[C@]1(C)O[C@H]1[C@H](C)[C@@H]1C[C@@](O)(NC(=O)O1)[C@H](OC)/C=C/C=C(\C)C2` , strictly under 0 g or not? not satisfied

Please check: Activity for `COc1cc2cc(c1Cl)N(C)C(=O)/C=C/[C@]1(C)O[C@H]1[C@H](C)[C@@H]1C[C@@](O)(NC(=O)O1)[C@H](OC)/C=C/C=C(\C)C2` , strictly under 0 g or not? not satisfied

***
Please check: Activity for `CCC(=O)N(C)[C@@H](C)C(=O)O[C@H]1CC(=O)N(C)c2cc(cc(OC)c2Cl)C/C(C)=C/C=C/[C@@H](OC)[C@@]2(O)C[C@H](OC(=O)N2)[C@@H](C)[C@@H]2O[C@@]12C` , strictly under 0 g or not? satisfied

Please check: Activity for `COc1cc2cc(c1Cl)N(C)C(=O)C[C@H](OC(=O)[C@H](C)N(C)C(C)=O)[C@]1(C)O[C@H]1[C@H](C)[C@@H]1C[C@@](O)(NC(=O)O1)[C@H](OC)/C=C/C=C(\C)C2` , strictly under 0 g or not? not satisfied

Please check: Activity for `COc1cc2cc(c1Cl)NC(=O)/C=C/[C@]1(C)O[C@H]1[C@H](C)[C@@H]1C[C@@](O)(NC(=O)O1)[C@H](OC)/C=C/C=C(\C)C2` , strictly under 0 g or not? satisfied

Please check: Activity for `CCC(=O)O[C@H]1CC(=O)N(C)c2cc(cc(OC)c2Cl)C/C(C)=C/C=C/[C@@H](OC)[C@@]2(O)C[C@H](OC(=O)N2)[C@@H](C)[C@@H]2O[C@@]12C` , strictly under 0 g or not? satisfied

Please check: Activity for `C/C=C/C(=O)O[C@H]1CC(=O)N(C)c2cc(cc(OC)c2Cl)C/C(C)=C/C=C/[C@@H](OC)[C@@]2(O)C[C@H](OC(=O)N2)[C@@H](C)[C@@H]2O[C@@]12C` , strictly under 0 g or not? satisfied

Please check: Activity for `COc1cc2cc(c1Cl)N(C)C(=O)C[C@H](OC(=O)[C@H](C)N(C)C(=O)C(C)C)[C@]1(C)O[C@H]1[C@H](C)[C@@H]1C[C@@](O)(NC(=O)O1)[C@H](OC)/C=C/C=C(\C)C2` , strictly under 0 g or not? not satisfied

Please check: Activity for COc1cc2cc(c1Cl)N(C)C(=O)C[C@H](OC(=O)C(C)C)[C@]1(C)O[C@H]1[C@H](C)[C@@H]1C[C@@](O)(NC(=O)O1)[C@H](OC)/C=C/C=C(\C)C2OC(C)=O (stereo not given in full) , strictly under 0 g or not? satisfied
